study_target: Human SARS-CoV-2_Wuhan S (SmT1) (SARS-CoV-2 (Wuhan), UniProt P0DTC2 14-1208)
method_description: flow cytometry SVNA, VHH-Fc vs biotin-S binding to Vero E6 ACE2
quantity: pIC50
Give bare numbers, as −log10 of the molar value.

Look over these answered cases.
[
  {
    "binder": "NRCoV2-14 VHH-Fc (Fc fusion, bivalent VHH-Fc) EVQLVSSGGGLVQAGGSLRLSCEASGTTFSHYAVGWYRQAPGKQREWVASISVFGSTTYGGSVAGRFTISRDNDKNTVDLQMNSLKPEDTAVYYCHAVNADIGGDYWGQGTQVTVSS",
    "pIC50": 8.00
  },
  {
    "binder": "NRCoV2-SR13 VHH-Fc (Fc fusion, bivalent VHH-Fc) EVQLVESGGGLVTTGGSLRLSCATSGSRFGSKHMAWYRQAPGKQRDLVAAISSGGSTHYGSSVKGRFTISRDNAKSTVYLQMNSLNPEDTAVFYCNMGGWDYRSNTYIPGSRSDYWGQGTQVTVSS",
    "pIC50": 7.62
  }
]

Then this binder:
Req: Form field: reported pIC50 of NRCoV2-SR02 VHH-Fc (Fc fusion, bivalent VHH-Fc) EVQLVDSGGGLVQAGGSLRLSCTASEFTLNYYSIGWFRQSPGKEREGVSCIRYSGGGIDYADSVKGRFTISRDNAKNTVYLTMNSLKPEDTAVYYCAADRLYSRACPTAGGRNYWGQGTQVTVSS
Resp: 8.24
